# measured_on: CCKB receptor (Mus musculus, UniProt P56481)
# Construct: The whole brains from male mice (CD1 22-25 g; Charles River) were removed; from tissue; host or cells: cerebral cortex membranes of male CD1 mice
# Sequence (P56481 1-453): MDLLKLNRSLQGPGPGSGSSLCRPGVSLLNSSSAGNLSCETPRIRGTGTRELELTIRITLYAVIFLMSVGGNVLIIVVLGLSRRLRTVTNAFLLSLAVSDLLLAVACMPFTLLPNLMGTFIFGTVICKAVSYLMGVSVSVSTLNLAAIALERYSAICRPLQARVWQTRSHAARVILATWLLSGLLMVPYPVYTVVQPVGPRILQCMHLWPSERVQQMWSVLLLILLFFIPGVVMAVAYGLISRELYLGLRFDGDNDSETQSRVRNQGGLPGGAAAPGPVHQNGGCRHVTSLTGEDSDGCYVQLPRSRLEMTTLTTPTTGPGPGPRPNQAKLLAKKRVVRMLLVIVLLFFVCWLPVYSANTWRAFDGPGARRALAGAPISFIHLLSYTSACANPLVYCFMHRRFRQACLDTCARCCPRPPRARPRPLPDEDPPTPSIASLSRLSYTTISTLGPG
# test_protocol: CCKB receptor radioligand binding assay in mouse cortical membranes
# recorded_conditions: [125I]-CCK8(S) 200 pM, 150 min at 21±3°, read-out: CCKB pKi (converted)
Structures can show the parent of a compound that is named as a salt.
Lab note: class by Ki, see 0 = under 10 nM, 1 = from 10 nM up to 300 nM, 2 = 300 nM and over

>  <compound>
Cc1ccc(NC(=O)c2nc(-c3c(C)cccc3C)[nH]c2CCC23CC4CC(CC(C4)C2)C3)cc1C(=O)O

>  <category_label>
0

$$$$
>  <compound>
Cc1ccc(C)c(-c2nc(C(=O)Nc3cccc(C(=O)O)c3)c(CCC34CC5CC(CC(C5)C3)C4)[nH]2)c1

>  <category_label>
1

$$$$
>  <compound>
Cc1ccc(NC(=O)c2nc(-c3ccccc3C)[nH]c2CCC23CC4CC(CC(C4)C2)C3)cc1C(=O)O

>  <category_label>
0

$$$$
>  <compound>
O=C(O)c1cc(NC(=O)c2[nH]c(-c3ccccc3)nc2CC2CCCCCC2)cc(C(=O)O)c1

>  <category_label>
2

$$$$
>  <compound>
O=C(O)c1cccc(NC(=O)c2nc(-c3ccccc3C(F)(F)F)[nH]c2CCC23CC4CC(CC(C4)C2)C3)c1

>  <category_label>
1

$$$$
>  <compound>
Cc1ccccc1-c1nc(NC(=O)c2cccc(C(=O)O)c2)c(CCC23CC4CC(CC(C4)C2)C3)[nH]1

>  <category_label>
2

$$$$
>  <compound>
Cc1ccccc1-c1nc(C(=O)Nc2cccc(C(=O)O)c2)c(CCC23CC4CC(CC(C4)C2)C3)s1

>  <category_label>
2

$$$$
>  <compound>
Cc1ccccc1-c1nc(CCc2cccc(C(=O)O)c2)c(C(=O)NCC23CC4CC(CC(C4)C2)C3)[nH]1

>  <category_label>
1

$$$$
>  <compound>
O=C(O)c1cccc(NC(=O)c2[nH]c(-c3ccccc3)nc2CCC23CC4CC(CC(C4)C2)C3)c1

>  <category_label>
1

$$$$
>  <compound>
O=C(O)c1cc(NC(=O)c2[nH]c(-c3ccccc3)nc2CCC23CC4CC(CC(C4)C2)C3)cc(C(=O)O)c1

>  <category_label>
2

$$$$
>  <compound>
Cc1ccccc1-c1nc(C(=O)Nc2ccc(Br)c(C(=O)O)c2)c(CCC23CC4CC(CC(C4)C2)C3)[nH]1

>  <category_label>
0

$$$$
>  <compound>
O=C(O)c1cccc(NC(=O)c2nc(C3CC4C=CC3C4)[nH]c2CCC23CC4CC(CC(C4)C2)C3)c1 (racemic) [Example 116]

>  <category_label>
1

$$$$
>  <compound>
CN1CCC[C@H]1c1nc(C(=O)Nc2cccc(C(=O)O)c2)c(CCC23CC4CC(CC(C4)C2)C3)[nH]1

>  <category_label>
2

$$$$
>  <compound>
Cc1ccccc1-c1nc(C(=O)Nc2cccc(CCC(=O)O)c2)c(CCC23CC4CC(CC(C4)C2)C3)[nH]1 [Example 97, Trifluoroacetic Acid Salt]

>  <category_label>
0

$$$$

---

# measured_on: CCKB receptor (Mus musculus)
# Construct: The whole brains from male mice (CD1 22-25 g; Charles River) were removed; from tissue; host or cells: cerebral cortex membranes of male CD1 mice
# Sequence (P56481 1-453): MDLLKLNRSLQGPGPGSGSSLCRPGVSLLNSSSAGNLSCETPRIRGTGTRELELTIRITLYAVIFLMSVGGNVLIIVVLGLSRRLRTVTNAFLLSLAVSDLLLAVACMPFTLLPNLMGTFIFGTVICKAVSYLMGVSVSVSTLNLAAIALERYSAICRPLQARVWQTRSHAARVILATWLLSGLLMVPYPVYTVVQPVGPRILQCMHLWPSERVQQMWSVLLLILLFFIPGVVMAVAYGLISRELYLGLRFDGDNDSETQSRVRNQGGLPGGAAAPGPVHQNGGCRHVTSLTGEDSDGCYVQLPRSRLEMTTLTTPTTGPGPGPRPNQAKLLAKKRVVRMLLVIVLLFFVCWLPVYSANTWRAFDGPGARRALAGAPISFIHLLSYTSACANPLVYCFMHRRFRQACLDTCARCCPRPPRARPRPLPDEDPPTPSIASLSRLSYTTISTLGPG
# test_protocol: CCKB receptor radioligand binding assay in mouse cortical membranes
# recorded_conditions: [125I]-CCK8(S) 200 pM, 150 min at 21±3°, read-out: CCKB pKi (converted)
# Method: The compounds of the examples were tested for binding at the CCKB receptor in mouse cortical membranes by means of a radioligand binding assay. The procedure was as follows: […] The assay was terminated by rapid filtration through pre-soaked Whatman GF/B filters using a Brandell Cell Harvester. The filters were washed (3×3 ml) with ice-cold 50 mM Tris-HCl (pH 7.4 @ 4° C.) and bound radioactivity determined by counting (1 min) in a gamma-counter.

>  <molecule>
O=C(O)c1cc(NC(=O)c2nc(-c3ccccc3)[nH]c2CCC2CCCCCC2)cc(C(=O)O)c1

>  <Ki [nM]>
2040

$$$$
>  <molecule>
Cc1ccccc1-c1nc(C(=O)Nc2cccc(C(=O)O)c2C)c(CCC23CC4CC(CC(C4)C2)C3)[nH]1

>  <Ki [nM]>
129

$$$$
>  <molecule>
CC(Cc1[nH]c(C2CCCCC2)nc1C(=O)Nc1cccc(C(=O)O)c1)C12CC3CC(CC(C3)C1)C2 (racemic)

>  <Ki [nM]>
42.7

$$$$
>  <molecule>
CC1(C)C2CCC(c3nc(C(=O)Nc4cccc(C(=O)O)c4)c(CCC45CC6CC(CC(C6)C4)C5)[nH]3)C1C2 (stereo not shown)

>  <Ki [nM]>
174

$$$$
>  <molecule>
O=C(Nc1cc(-c2nnn[nH]2)cc(-c2nnn[nH]2)c1)c1nc(-c2ccccc2)[nH]c1CC1CCCCCC1

>  <Ki [nM]>
69.2

$$$$
>  <molecule>
O=C(Nc1cccc(-c2nnn[nH]2)c1)c1nc(C2CCCCC2)[nH]c1CCC12CC3CC(CC(C3)C1)C2

>  <Ki [nM]>
9.55

$$$$
>  <molecule>
O=C(O)c1cc(NC(=O)c2[nH]c(-c3ccc4[nH]ccc4c3)nc2CC2CCCCCC2)cc(C(=O)O)c1

>  <Ki [nM]>
1070

$$$$

---

# measured_on: gastrin receptor (Rattus norvegicus, UniProt P30553)
# Construct: The stomach was excised and flushed with ca. 1 ml of unbuffered physiological saline solution; from tissue; host or cells: isolated whole stomach of immature rats (ca. 21 days old)
# Sequence (P30553 whole entry): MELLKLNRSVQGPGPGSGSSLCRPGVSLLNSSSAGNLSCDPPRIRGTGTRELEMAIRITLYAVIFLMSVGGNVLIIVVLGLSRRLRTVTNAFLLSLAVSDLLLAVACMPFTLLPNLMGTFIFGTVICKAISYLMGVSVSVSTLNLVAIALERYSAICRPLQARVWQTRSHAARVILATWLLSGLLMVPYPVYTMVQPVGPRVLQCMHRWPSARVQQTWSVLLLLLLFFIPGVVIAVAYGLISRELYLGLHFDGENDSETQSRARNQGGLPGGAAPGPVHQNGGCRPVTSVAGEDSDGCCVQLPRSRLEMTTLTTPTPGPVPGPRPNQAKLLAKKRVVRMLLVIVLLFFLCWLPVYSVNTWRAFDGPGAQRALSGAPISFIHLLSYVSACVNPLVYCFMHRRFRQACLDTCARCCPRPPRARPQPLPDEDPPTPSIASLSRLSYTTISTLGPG
# test_protocol: gastrin antagonist activity in immature rat stomach assay (pentagastrin dose-response, acid secretion)
# recorded_conditions: isolated immature rat stomach, cumulative pentagastrin dose-response curves, read-out: Gastrin pKb (converted)
// label = criterion met if Kb is not less than 100 nM, otherwise criterion not met

>  <compound>
O=C(O)c1cccc(NC(=O)c2nc(C3CCCCC3)[nH]c2CCC2CCCCCC2)c1 [Example 166]

>  <category_label>
criterion not met

$$$$
>  <compound>
O=C(O)c1cccc(NC(=O)c2c(COC34CC5CC(CC(C5)C3)C4)nc(-c3c(Cl)cccc3Cl)n2O)c1 [Example 313]

>  <category_label>
criterion not met

$$$$
>  <compound>
Cc1cc(C)c(-c2nc(C(=O)Nc3cccc(C(=O)O)c3)c(CCC34CC5CC(CC(C5)C3)C4)[nH]2)c(C)n1 [Example 182]

>  <category_label>
criterion not met

$$$$
>  <compound>
O=C(O)c1cccc(NC(=O)c2nc(-c3ccco3)[nH]c2CCC23CC4CC(CC(C4)C2)C3)c1 [Example 185]

>  <category_label>
criterion met

$$$$
>  <compound>
O=C(O)c1cccc(NC(=O)c2nc(-c3ccccc3C(F)(F)F)[nH]c2CCC2CCCCCC2)c1 [Example 40]

>  <category_label>
criterion met

$$$$
>  <compound>
Cc1ccccc1-c1nc(C(=O)Nc2cccc(C(=O)O)c2)c(CC2CCCCCC2)[nH]1 [Example 165]

>  <category_label>
criterion met

$$$$
>  <compound>
CN1CCCCC1c1nc(C(=O)Nc2cccc(C(=O)O)c2)c(CCC23CC4CC(CC(C4)C2)C3)[nH]1 (racemic) [Example 139]

>  <category_label>
criterion not met

$$$$
>  <compound>
Cc1ccccc1-c1nc(NC(=O)Nc2cccc(C(=O)O)c2)c(CCC23CC4CC(CC(C4)C2)C3)[nH]1 [Example 75]

>  <category_label>
criterion met

$$$$
>  <compound>
Cc1ccccc1-c1nc(CCC23CC4CC(CC(C4)C2)C3)c(C(=O)Nc2ccc(N(C)C)c(C(=O)O)c2)[nH]1 [Example 242]

>  <category_label>
criterion met

$$$$
>  <compound>
Cc1ccc(-c2nc(C(=O)Nc3cccc(C(=O)O)c3)c(CCC34CC5CC(CC(C5)C3)C4)[nH]2)c(C)c1 [Example 67]

>  <category_label>
criterion not met

$$$$
>  <compound>
CC(C)c1nc(C(=O)Nc2cccc(C(=O)O)c2)c(CCC23CC4CC(CC(C4)C2)C3)[nH]1 [Example 78]

>  <category_label>
criterion not met

$$$$
>  <compound>
Cc1ccccc1-c1nc(C(=O)Oc2cccc(C(=O)O)c2)c(CCC23CC4CC(CC(C4)C2)C3)[nH]1 [Example 281]

>  <category_label>
criterion met

$$$$
>  <compound>
Cc1ccccc1-c1nc(C(=O)Nc2cccc(C(=O)O)c2)c(CCC23CC4CC(CC(C4)C2)C3)n1C [Example 73]

>  <category_label>
criterion not met

$$$$

Data credit: patent US6479531B1
